target: HPEPT1 (Homo sapiens, UniProt P46059); experiment: Inhibition of radiolabelled Gly-Sar uptake in DC5 cells overexpressing HPEPT1; format: cell-based; parameters: expressed in transfected cells; host or cells: HeLa cells overexpressing hPEPT1 (called 'HPEPT1 infected cells')
Sequence (P46059 whole entry): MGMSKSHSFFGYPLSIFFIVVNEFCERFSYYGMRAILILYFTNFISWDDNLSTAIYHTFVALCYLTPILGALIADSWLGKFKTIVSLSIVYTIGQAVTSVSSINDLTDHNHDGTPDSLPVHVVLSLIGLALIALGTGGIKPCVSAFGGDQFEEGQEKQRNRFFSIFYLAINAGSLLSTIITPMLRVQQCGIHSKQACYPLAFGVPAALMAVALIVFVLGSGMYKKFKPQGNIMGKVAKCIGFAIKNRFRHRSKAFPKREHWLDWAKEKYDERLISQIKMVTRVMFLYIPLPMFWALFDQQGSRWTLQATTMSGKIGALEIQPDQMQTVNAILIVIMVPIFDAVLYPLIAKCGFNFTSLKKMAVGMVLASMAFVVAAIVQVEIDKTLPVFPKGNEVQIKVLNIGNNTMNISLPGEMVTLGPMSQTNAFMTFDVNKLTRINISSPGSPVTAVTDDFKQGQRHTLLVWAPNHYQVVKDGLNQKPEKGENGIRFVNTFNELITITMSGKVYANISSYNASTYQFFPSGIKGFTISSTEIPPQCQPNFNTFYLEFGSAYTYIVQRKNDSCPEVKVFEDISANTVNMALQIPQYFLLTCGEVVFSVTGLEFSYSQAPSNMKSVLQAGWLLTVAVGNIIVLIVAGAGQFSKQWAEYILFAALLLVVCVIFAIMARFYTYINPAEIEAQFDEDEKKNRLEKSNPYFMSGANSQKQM
measurement_label: pIC50
Notebook: values listed as pIC50 are -log10 of the concentration (mol/L).

Lab book: pIC50 of CC(C)[C@H](N)C(=O)OCCOCn1cnc2c(=O)[nH]c(N)nc21 [Valacyclovir] noted as 3.37

###

target: UniProt P46059; settings: HeLa cells overexpressing HPEPT1, 50 micromolar, pH 6.0, 45 minutes
measurement_label: Uptake (hPepT1) (nmole/mg/45 min)
Numeric only. Scale: nmole/mg/45 min

>>> print(df.to_string())
                                   compound  measurement_label            units  measured
0  CC[C@H](C)[C@H](N)C(=O)OC[C@H]1O[C@@H](n2ccc(N)nc2=O)C(F)(F)[C@@H]1O    Uptake (hPepT1)  nmole/mg/45 min      1.22
1  N[C@@H](Cc1ccccc1)C(=O)OC[C@H]1O[C@@H](n2cc(F)c(=O)[nH]c2=O)C[C@@H]1OC(=O)[C@@H](N)Cc1ccccc1    Uptake (hPepT1)  nmole/mg/45 min      2.96
2  CC(C)C(N)C(=O)OC[C@H]1O[C@@H](n2cc(F)c(=O)[nH]c2=O)C[C@@H]1OC(=O)C(N)C(C)C (stereo partly drawn)    Uptake (hPepT1)  nmole/mg/45 min      2.78
3  CC(C)[C@@H](N)C(=O)OC[C@H]1O[C@@H](n2ccc(N)nc2=O)C(F)(F)[C@@H]1OC(=O)[C@H](N)C(C)C    Uptake (hPepT1)  nmole/mg/45 min      1.11
4  N[C@@H](Cc1ccccc1)C(=O)OC[C@H]1O[C@@H](n2cc(F)c(=O)[nH]c2=O)C[C@@H]1O    Uptake (hPepT1)  nmole/mg/45 min      1.58

With UniProt P46059 as the test system, "CC[C@H](C)[C@H](N)C(=O)O[C@@H]1[C@@H](CO)O[C@@H](n2ccc(N)nc2=O)C1(F)F" showed Uptake (hPepT1) of 1.03

Considering "CC(C)[C@H](N)C(=O)O[C@@H]1[C@@H](CO)O[C@@H](n2ccc(N)nc2=O)C1(F)F" , its Uptake (hPepT1) with UniProt P46059 was recorded as 1.12

Measured Uptake (hPepT1) (UniProt P46059), entry "CC(C)[C@H](N)C(=O)OC[C@H]1O[C@@H](n2ccc(N)nc2=O)C(F)(F)[C@@H]1O" : 2.14
